Recorded values, source ChEMBL document CHEMBL1156106.

Tested on: Mus musculus
Test: Antidepressant activity in ip dosed mouse assessed as stimulation of locomotor activity relative to cocaine
Type: functional
In this section we review reported Activity values for a set of compounds.
Remember to put the unit after the number in your answer.

compound	Activity
CCCC(NC(C)(C)C)C(=O)c1cccc(Cl)c1 (stereo not drawn)	108%
CC(NC(C)(C)C)C(=O)c1cccc(Br)c1 (stereo not drawn)	57%
CC(C)NC(C)C(=O)c1cccc(Cl)c1 (stereo not drawn)	46%
CC(NC(C)(C)C)C(=O)c1cccc(F)c1 (stereo not drawn)	80%
CC(C)(C)NC(CCC1CCCCC1)C(=O)c1cccc(Cl)c1 (stereo not drawn)	33%

// Activity value for CCCC(NC(C)(C)C)C(=O)c1ccc(Cl)c(Cl)c1 (stereo not drawn) : 93%

// Activity value for CC(C(=O)c1cccc(Cl)c1)N(C)C (stereo not drawn) : 64%

// Activity value for CC(NC(C)(C)C)C(=O)c1cc(F)cc(F)c1 (stereo not drawn) : 84%

// Activity value for CC(NC(C)(C)C)C(=O)c1ccccc1 (stereo not drawn) : 95%

// Activity value for CC(NC1CCCC1)C(=O)c1cccc(Cl)c1 (stereo not drawn) : 107%

// Activity value for CC(NC(C)(C)C)C(=O)c1ccc(Cl)c(Cl)c1 (stereo not drawn) : 61%

// Activity value for CCCCCC(NC(C)(C)C)C(=O)c1cccc(Cl)c1 (stereo not drawn) : 90%

// Activity value for Cc1ccc(C(=O)C(C)NC(C)(C)C)cc1 (stereo not drawn) : 26%
